test system: GluN1/GluN2A-D diheteromeric NMDARs; test: TEVC electrophysiology, values stated in the text across several GluN2 subtypes; format: cell-based, rat; settings: read-out: EC50 values across GluN2A-D; range over GluN2A-D
quantity: EC50

*Q* Which EC50 reading was recorded for the compound CC(C)CCCc1ccc2cc(C(=O)O)ccc2c1 [Compound 14b, 6-(4-Methylpent-1-yl)-2-naphthoic acid] ?
*A* 28 to 37.2 µM
